Attribution: patent US20200140532A1

MEASURED ON: T1, recombinant bovine Aggrecan G1-IGD-G2 (bovine, UniProt P13608 20-684, limits assumed)
T1 construct: also called Bov G1-IGD-G2; Boy G1-IGD-G2
PROCEDURE DETAILS: periplasmic extract ELISA
QUANTITY: OD 450 nm
Give the figure together with its unit, number first.

INSERT INTO measurements (binder, quantity, result) VALUES
  ('C0101PMP604G01 (VHH, Tested as E. coli periplasmic extract; not shown: FLAG3 and His6 tags (phagemid pAX212)) VHH: DVQLVESGGGLVQPGGSLRLSCAASGRTFSSYTMGWFRQAPGKEREFVAAISWSGRTTYYADSVKGRFTISRDNSKNTVYLQMNSLRPEDTAVYYCAAYRRVRYTNLEVWDYWGQGTLVTVSS', 'OD 450 nm', '0.68 OD 450 nm'),
  ('C0101PMP113A01 (VHH, Tested as E. coli periplasmic extract; not shown: FLAG3 and His6 tags (phagemid pAX212)) VHH: EVQLVESGGGLVQPGGSLRLSCSASGFTFSGSWMFWVRQAPGKDYEWVASINSSGGRTYYDDSVKGRFTISRDSAKNTLYLEMNNLKPEDTALYFCARSPRVGSWGQGTQVTVSS', 'OD 450 nm', '2.54 OD 450 nm'),
  ('C0101PMP117D05 (VHH, Tested as E. coli periplasmic extract; not shown: FLAG3 and His6 tags (phagemid pAX212)) VHH: KVQLVESGGGLVQAGGSLRLSCAASRRTFNMMGWFRQAPGKEREFVAYITWNGGDTRYAESVKGRFTVSRDDVKNTMALQMNRLDPLDTAVYYCGVRIHGSNWSTKADDYDNWGQGTQVTVSS', 'OD 450 nm', '1.92 OD 450 nm');

Turning to the following binder.
Which OD 450 nm reading was recorded for the binder C0101PMP608A05 (VHH, Tested as E. coli periplasmic extract; not shown: FLAG3 and His6 tags (phagemid pAX212)) VHH: DVQLVESGGGLVQPGGSLRLSCAASGRTFSTYTMGWFRQAPGKEREFVAAISWSGGTTYYADSVKGRFTISRDNSKNTVYLQMNSLRPEDTAVYYCAARPRYYYYSLYSYDYWGQGTLVTVSS ?
2.27 OD 450 nm
